Data origin, for the record: ChEMBL document CHEMBL3085658

molecular target: Toll-like receptor 4 (Homo sapiens); assay: Antagonist activity at human TLR4 expressed in LPS-stimulated HEK293 cells co-expressing MD-2 and CD14 after 2 hrs by SEAP assay
Sequence (O00206 whole entry): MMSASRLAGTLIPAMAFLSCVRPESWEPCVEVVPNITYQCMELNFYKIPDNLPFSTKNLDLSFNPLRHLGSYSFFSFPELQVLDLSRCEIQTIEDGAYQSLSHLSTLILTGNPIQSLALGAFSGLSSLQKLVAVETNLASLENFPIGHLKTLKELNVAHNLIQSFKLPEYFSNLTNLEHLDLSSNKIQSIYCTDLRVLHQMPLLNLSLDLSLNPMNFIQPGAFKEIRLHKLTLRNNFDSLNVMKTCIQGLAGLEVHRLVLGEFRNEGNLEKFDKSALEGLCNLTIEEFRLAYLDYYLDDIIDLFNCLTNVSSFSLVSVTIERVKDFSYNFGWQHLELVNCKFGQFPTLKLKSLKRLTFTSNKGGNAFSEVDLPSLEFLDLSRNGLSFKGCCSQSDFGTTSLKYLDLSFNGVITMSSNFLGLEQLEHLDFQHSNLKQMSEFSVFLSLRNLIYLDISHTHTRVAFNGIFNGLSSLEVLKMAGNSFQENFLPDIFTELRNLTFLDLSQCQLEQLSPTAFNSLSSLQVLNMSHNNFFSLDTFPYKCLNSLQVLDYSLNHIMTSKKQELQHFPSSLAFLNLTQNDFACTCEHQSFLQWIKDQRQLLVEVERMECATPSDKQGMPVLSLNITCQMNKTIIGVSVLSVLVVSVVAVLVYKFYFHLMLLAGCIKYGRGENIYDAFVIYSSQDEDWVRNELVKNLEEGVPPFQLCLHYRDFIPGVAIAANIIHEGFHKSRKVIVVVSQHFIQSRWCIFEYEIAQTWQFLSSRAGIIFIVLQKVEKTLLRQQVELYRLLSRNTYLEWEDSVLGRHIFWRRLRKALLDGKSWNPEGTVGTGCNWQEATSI
test-readout: IC50

Cc1ncc(CN(C)C[C@@H](O)COc2ccc(F)cc2)s1; ND(Insoluble)
CCN(CC(=O)Nc1ccc2c(c1)OCCO2)Cc1nc2scc(-c3ccc(C)s3)c2c(=O)[nH]1; ND(Insoluble)
CC(C)c1ccc(NC(=O)CCc2csc(NC(=O)c3ccc[nH]c3=O)n2)cc1; ND(Insoluble)
N=C(NC1=N[C@@H](CC(=O)Nc2ccc(Cl)cc2)C(O)=N1)Nc1ccccc1; Not Active
C[C@H](SCc1nc2scc(-c3ccccc3)c2c(=O)[nH]1)C(=O)NCc1nc2ccccc2[nH]1; ND(Insoluble)

What measured IC50 goes with Cc1ccc(Cn2cc(C(=O)NNC(=O)Nc3ccc4c(c3)OCO4)ccc2=O)cc1 ?
ND(Insoluble)

Can you share its IC50? I mean this compound: Cc1nn(Cc2ccccc2Cl)c(C)c1CN(C)C(=O)/C=C/c1cccs1
Not Active

Quick one: IC50 for O=c1[nH]c(CN2CCC[C@@H]2c2ccc3c(c2)OCCCO3)nc2scc(-c3ccccc3)c12 ?
ND(Insoluble)
